# Test system: PriA–SSB C-terminal tail interaction (Klebsiella pneumoniae)
# PROTOCOL_SUMMARY: blocks PriA binding to SSB C-terminal tail, primary screen, biochemical, AlphaScreen (AID 1272365);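 also: plate controls were negative control peptide for no effect and reference peptide for full effect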
# RUN_CONDITIONS: AlphaScreen SSBct-PriA binding, biotinylated peptide; at 33 µM
Hit rate of the full screen: of about 430,000 compounds, about 2,600 (0.6%) were called active. Rule as the data show it: active = inhibition mostly above about 37% (no sharp cut-off); inactive = mostly below about 20%. Only a selection was taken, and actives are over-represented in it overall.
One label from this list, please: active, inactive

Per the records of this test, what outcome belongs to Cc1cccc(-n2cnc(C(=O)NNC(=S)Nc3ccccc3)c2)n1 ? active

Per the records of this test, what outcome belongs to CC(C)c1cc(=O)n(CC(=O)Nc2ccccc2C#N)cn1 ? inactive

Per the records of this test, what outcome belongs to Oc1ccc(CN2CCCCCC2)c2cccnc12 ? active

Per the records of this test, what outcome belongs to Cc1cccc(-n2cc(-c3ccccc3)c3c(Nc4ccc(Oc5ccc(Cl)cc5)cc4)ncnc32)c1 ? inactive

Per the records of this test, what outcome belongs to CNC(=O)NC(=O)C(C)N1CCN(C/C=C/c2ccccc2)CC1 (stereo not drawn) ? inactive

Per the records of this test, what outcome belongs to Oc1c(CN2CCOCC2)ccc(CN2CCOCC2)c1O ? inactive

Per the records of this test, what outcome belongs to O=C(NC[C@]1(O)CCc2ccccc21)c1ccccc1F ? inactive

Per the records of this test, what outcome belongs to Cc1cc(C)cc(NC(=O)N2CCN(c3ccc4nnc(C5CC5)n4n3)CC2)c1 ? inactive

Per the records of this test, what outcome belongs to COCCN(Cc1ccncc1)C(=O)c1ccco1 ? inactive

Per the records of this test, what outcome belongs to CS(=O)(=O)c1ccccc1C(=O)N1CCN(c2ccccc2)CC1 ? inactive

Per the records of this test, what outcome belongs to O=C(NCCCn1ncccc1=O)c1cccc(C(F)(F)F)c1 ? inactive

Per the records of this test, what outcome belongs to O=C(NNC(=S)Nc1ccccc1)c1cccc(S(=O)(=O)N2CCOCC2)c1 ? inactive

Per the records of this test, what outcome belongs to CCN(CC)CCOc1ccc2c(c1)C(=NNC(=O)c1ccccn1)c1cc(OCCN(CC)CC)ccc1-2 ? active

Per the records of this test, what outcome belongs to COc1ncc(Br)c2ncccc12 ? inactive

Per the records of this test, what outcome belongs to CS(=O)(=O)N1CCCC1C(=O)Nc1nc2c(F)cc(F)cc2s1 (stereo not drawn) ? inactive

Per the records of this test, what outcome belongs to O=C1c2ccccc2C(=O)c2c1cccc2N1CCN(Cc2ccccc2)CC1 ? inactive

Per the records of this test, what outcome belongs to Cn1nnc2c(N3CC(C(=O)Nc4ccc5cn[nH]c5c4)C3)ncnc21 ? inactive

Per the records of this test, what outcome belongs to O=C(CSc1ncc(-c2cccc(Br)c2)o1)NCc1ccc2c(c1)OCO2 ? inactive

Per the records of this test, what outcome belongs to CC(C)C(NC(=O)c1ccc([N+](=O)[O-])cc1)c1nc2ccccc2[nH]1 (stereo not drawn) ? inactive

Per the records of this test, what outcome belongs to COc1ccccc1NC(=O)CC(C)=NNC(=O)c1ccccn1 ? inactive

Per the records of this test, what outcome belongs to Clc1ccc(CN2CCCCCC2)cc1Cl ? inactive

Per the records of this test, what outcome belongs to Cc1cc(NC(=O)c2ccccc2Cl)n(-c2nc3c(cnn3-c3cccc(C)c3C)c(=O)[nH]2)n1 ? active

Per the records of this test, what outcome belongs to CCOC(=O)CNC(=O)NC1CC(=O)N(c2ccccc2)C1 (stereo not drawn) ? inactive

Per the records of this test, what outcome belongs to CCCCc1ccc(Nc2c(C(=O)N3CCSCC3)cnc3nc(C)ccc23)cc1 ? inactive

Per the records of this test, what outcome belongs to CC(=O)Nc1ccc(S(=O)(=O)N2CCN(S(=O)(=O)c3ccc(C)cc3)CC2)cc1 ? inactive

Per the records of this test, what outcome belongs to Oc1ccc(CN2CCCC2)c2cccnc12 ? active

Per the records of this test, what outcome belongs to NC(=NOC(=O)C1CCCCC1)c1ccc(Br)cc1 ? inactive

Per the records of this test, what outcome belongs to COc1ccc(Br)c(C(=O)NCCCc2cnoc2)c1 ? inactive

###

# Tested on: PriA–SSB C-terminal tail interaction (Klebsiella pneumoniae)
# PROTOCOL_SUMMARY: blocks PriA binding to SSB C-terminal tail, primary screen, biochemical, AlphaScreen (AID 1272365);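 also: plate controls were negative control peptide for no effect and reference peptide for full effect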
# RUN_CONDITIONS: AlphaScreen SSBct-PriA binding, biotinylated peptide; at 33 µM, hits give high values
In all, about 430,000 compounds went through this assay and about 2,600 (0.6%) were called active. What follows is part of a selection rich in actives, with near analogues and random picks from the rest.
ENDPOINT: inhibition (%)
Just the number please, in %, no unit attached.

Item: CCOC(=O)c1ccc(NNC(C)=O)c([N+](=O)[O-])c1 Test system: PriA–SSB C-terminal tail interaction (Klebsiella pneumoniae) Read-out: inhibition Value: ? 3.85

Item: CC1Oc2ccccc2OC1C(=O)N1CCN(c2nc3c(S(C)(=O)=O)cccc3s2)CC1 (centres undefined) Test system: PriA–SSB C-terminal tail interaction (Klebsiella pneumoniae) Read-out: inhibition Value: ? -4

Item: O=C(Cc1csc(NC(=O)c2ccccc2)n1)NCc1ccccn1 Test system: PriA–SSB C-terminal tail interaction (Klebsiella pneumoniae) Read-out: inhibition Value: ? 0

Item: COc1cc(NC(=O)CSc2ccc(-c3cccnc3)nn2)cc(OC)c1 Test system: PriA–SSB C-terminal tail interaction (Klebsiella pneumoniae) Read-out: inhibition Value: ? 6.7

Item: CN(c1ccccc1)c1ccc([N+](=O)[O-])c2nonc12 Test system: PriA–SSB C-terminal tail interaction (Klebsiella pneumoniae) Read-out: inhibition Value: ? 32.9

Item: Cc1ccc(-c2csc(NC(=O)[C@H](C(C)C)N3C(=O)c4ccccc4C3=O)n2)cc1 Test system: PriA–SSB C-terminal tail interaction (Klebsiella pneumoniae) Read-out: inhibition Value: ? -1

Item: O=C(COc1ccc(F)cc1)Nc1ccc2c(c1)N(C(=O)c1ccco1)CC2 Test system: PriA–SSB C-terminal tail interaction (Klebsiella pneumoniae) Read-out: inhibition Value: ? 0

Item: O=C(NCCc1ccccc1)NCCC(O)c1ccccc1 (centres undefined) Test system: PriA–SSB C-terminal tail interaction (Klebsiella pneumoniae) Read-out: inhibition Value: ? -6

Item: O=C(Cc1csc(Nc2ccc(OC(F)(F)F)cc2)n1)NCc1ccco1 Test system: PriA–SSB C-terminal tail interaction (Klebsiella pneumoniae) Read-out: inhibition Value: ? -4

Item: CCc1ccc(Nc2ccc([N+](=O)[O-])c3nonc23)cc1 Test system: PriA–SSB C-terminal tail interaction (Klebsiella pneumoniae) Read-out: inhibition Value: ? 79.3

Item: CCCN1CCCc2cc(CCNC(=O)C(=O)Nc3ccc(OC(F)(F)F)cc3)ccc21 Test system: PriA–SSB C-terminal tail interaction (Klebsiella pneumoniae) Read-out: inhibition Value: ? -6

Item: CCCN1CCCc2cc(CCNS(=O)(=O)c3ccc(NC(C)=O)cc3)ccc21 Test system: PriA–SSB C-terminal tail interaction (Klebsiella pneumoniae) Read-out: inhibition Value: ? 85

Item: Cc1ccc2cc(CCNC(=O)c3c(-c4ccccc4Cl)noc3C)c(=O)[nH]c2c1 Test system: PriA–SSB C-terminal tail interaction (Klebsiella pneumoniae) Read-out: inhibition Value: ? 4.89

Item: CS(=O)(=O)N1CCC(CNC(=O)c2cc3ccccc3o2)CC1 Test system: PriA–SSB C-terminal tail interaction (Klebsiella pneumoniae) Read-out: inhibition Value: ? -23

Item: O=[N+]([O-])c1cc(C(F)(F)F)ccc1NCCc1ccncc1 Test system: PriA–SSB C-terminal tail interaction (Klebsiella pneumoniae) Read-out: inhibition Value: ? -11.2

Item: Brc1ccc(CSc2nnc3ccc(-c4ccccn4)nn23)cc1 Test system: PriA–SSB C-terminal tail interaction (Klebsiella pneumoniae) Read-out: inhibition Value: ? -17

Item: O=C(Cc1cc(=O)[nH]c(SCc2cccc(Cl)c2)n1)Nc1ccc2c(c1)OCCO2 Test system: PriA–SSB C-terminal tail interaction (Klebsiella pneumoniae) Read-out: inhibition Value: ? 12

Item: N#Cc1nccnc1O[C@H]1CCCN(C(=O)c2ccc3nc[nH]c3c2)C1 Test system: PriA–SSB C-terminal tail interaction (Klebsiella pneumoniae) Read-out: inhibition Value: ? -19

Item: CC(=NC1CCN(Cc2ccccc2)CC1)c1c(O)[nH]c(=O)[nH]c1=O Test system: PriA–SSB C-terminal tail interaction (Klebsiella pneumoniae) Read-out: inhibition Value: ? -3

Item: CCSc1nnc(NC(=O)CSc2nnc(CNC(=O)c3cccs3)o2)s1 Test system: PriA–SSB C-terminal tail interaction (Klebsiella pneumoniae) Read-out: inhibition Value: ? -13

Item: CCCCOC(=O)NCN1C(=O)C2C3C=CC(C3)C2C1=O (centres undefined) Test system: PriA–SSB C-terminal tail interaction (Klebsiella pneumoniae) Read-out: inhibition Value: ? 9.26

Item: N#C/C(=C\N1CCC(C(N)=O)CC1)C(=O)NCCc1ccccc1 Test system: PriA–SSB C-terminal tail interaction (Klebsiella pneumoniae) Read-out: inhibition Value: ? -13

Item: CC(=O)OCC1OC(Oc2ccc(C(=O)/C=C/c3ccccc3)cc2)C(OC(C)=O)C(OC(C)=O)C1OC(C)=O (centres undefined) Test system: PriA–SSB C-terminal tail interaction (Klebsiella pneumoniae) Read-out: inhibition Value: ? 5

Item: COc1ccc2cc(C(=O)N(CCc3cccs3)C3CC3)[nH]c2c1 Test system: PriA–SSB C-terminal tail interaction (Klebsiella pneumoniae) Read-out: inhibition Value: ? -1

Item: Cc1cc(-c2nnc(NC(=O)C(c3ccccc3)c3ccccc3)o2)n(C)n1 Test system: PriA–SSB C-terminal tail interaction (Klebsiella pneumoniae) Read-out: inhibition Value: ? 61

Item: c1ccc(Cc2nnc(-c3ccc4c(c3)OCCO4)o2)cc1 Test system: PriA–SSB C-terminal tail interaction (Klebsiella pneumoniae) Read-out: inhibition Value: ? -10

Item: c1cncc(-c2nnc3sc(-c4cc5ccccc5o4)nn23)c1 Test system: PriA–SSB C-terminal tail interaction (Klebsiella pneumoniae) Read-out: inhibition Value: ? -28

Item: CC(C)C1Nc2ccccc2C(=O)N1CC(=O)Nc1nc(-c2ccccn2)cs1 (centres undefined) Test system: PriA–SSB C-terminal tail interaction (Klebsiella pneumoniae) Read-out: inhibition Value: ? 94.5

Item: Cc1oc(-c2ccc(Cl)cc2)cc1C(=O)Nc1ccc(S(N)(=O)=O)cc1 Test system: PriA–SSB C-terminal tail interaction (Klebsiella pneumoniae) Read-out: inhibition Value: ? -10
